Kindly state IC50 for each of the entries shown.
# test target: muscarinic cholinergic receptor
# assay summary: [3H] Quinuclidinyl Benzilate (3H-QNB) Binding Assay
# Set-up: species or system rat
# assay conditions: pH 7.4
Please state the figure in mM; there is no need to write the unit.

Provide the documented IC50 with muscarinic cholinergic receptor as the system for CN(C)CC#CCN1C[C@H](O)CC1=O
2.35

Provide the documented IC50 with muscarinic cholinergic receptor as the system for CN(C)CC#CCN1C[C@@H](O)CC1=O
1.51

Provide the documented IC50 with muscarinic cholinergic receptor as the system for O=C1CCCN1CC#CCN1CCCCC1 [reference compound]
0.002

Provide the documented IC50 with muscarinic cholinergic receptor as the system for CC(=O)O[C@H]1CCN(CC#CCN(C)C)C1=O
1.36

Provide the documented IC50 with muscarinic cholinergic receptor as the system for CC(=O)N(C)CC#CCN1CCC(O)C1 (racemic) [(Racemic)-N-[4-(3-Hydroxy-1-pyrrolidinyl)-2-butynyl]-N-methyl acetamide]
1.19

Provide the documented IC50 with muscarinic cholinergic receptor as the system for O=C1[C@H](O)CCN1CC#CCN1CCCC1
0.047

* * *

Kindly state pIC50 for each of the entries shown.
# test target: muscarinic cholinergic receptor
# assay summary: [3H] Quinuclidinyl Benzilate (3H-QNB) Binding Assay
# Parameters: species or system rat
# assay conditions: pH 7.4
Please keep in mind that pIC50 is minus log10 of the molar concentration; only the number is needed.

So what's the measured pIC50 for this one? CC(C)(C)[Si](C)(C)O[C@H]1CC(=O)N(CC#CCN2CCCC2)C1
4.64

So what's the measured pIC50 for this one? CC(=O)S[C@H]1CCN(CC#CCN2CCCCC2)C1=O
4.85

So what's the measured pIC50 for this one? O=C1CCCN1CC#CCN1CCC(O)C1 (racemic) [(Racemic)-1-[4-(3-Hydroxy-1-pyrrolidinyl)-2-butynyl]-2-pyrrolidinone]
3.40

So what's the measured pIC50 for this one? CC(=O)O[C@@H]1CC(=O)N(CC#CCN2CCCC2)C1
4.34

So what's the measured pIC50 for this one? CN(C)CC#CCN1CC[C@H](O[Si](C)(C)C(C)(C)C)C1=O
3.70

So what's the measured pIC50 for this one? CC(=O)O[C@H]1CC(=O)N(CC#CCN2CCCCC2)C1
3.80

So what's the measured pIC50 for this one? CC(=O)O[C@H]1CC(=O)N(CC#CCN2CCCC2)C1
3.95

So what's the measured pIC50 for this one? COC1CCN(CC#CCN2CCCC2=O)C1 (racemic) [(Racemic)-1-[4-(3-Methoxy-1-pyrrolidinyl)-2-butytnyl]-2-pyrrolidinone]
3.96

So what's the measured pIC50 for this one? CO[C@@H]1CCN(CC#CCN2CCCCC2)C1=O
3.34

* * *

# test target: muscarinic cholinergic receptor
# assay summary: [3H]-Cis-methyldioxolane (3H-CD) Binding Assay (High Affinity)
# assay conditions: rat cerebral cortex, 1.0 nM 3H-CD, 25° C., 120 minutes, pH 7.4
Where a name gives a salt, the structure may show the parent alone.
quantity: log10 of IC50 (log10 of the value in nM)
Form field - Quantity: IC50; Unit: nM; Scale: log10

So what's the measured log10 of IC50 for this one? O=C1C[C@@H](O)CN1CC#CCN1CCCCC1
3.58

So what's the measured log10 of IC50 for this one? CN(C)CC#CCN1CC[C@@H](S)C1=O [monohydrochloride]
1.88

So what's the measured log10 of IC50 for this one? O=C1[C@@H](O)CCN1CC#CCN1CCCC1
0.95

So what's the measured log10 of IC50 for this one? CC(C)(C)[Si](C)(C)O[C@H]1CCN(CC#CCN2CCCCC2)C1=O
2.21

So what's the measured log10 of IC50 for this one? CC(=O)O[C@H]1CCN(CC#CCN(C)C)C1=O
2.72

So what's the measured log10 of IC50 for this one? CN(C)CC#CCN1CCCC1=O [reference compound]
1.64

So what's the measured log10 of IC50 for this one? C[N+](C)(C)CC#CCN1CCCC1=O [reference compound]
0.48

So what's the measured log10 of IC50 for this one? CC(=O)O[C@H]1CCN(CC#CCN2CCCCC2)C1=O
3.16

So what's the measured log10 of IC50 for this one? CN(C)CC#CCN1C[C@@H](O)CC1=O
4.00

So what's the measured log10 of IC50 for this one? CN(C)CC#CCN1C[C@H](O)CC1=O
2.76

So what's the measured log10 of IC50 for this one? CO[C@@H]1CCN(CC#CCN2CCCCC2)C1=O
4.45

So what's the measured log10 of IC50 for this one? O=C1C[C@H](O)CN1CC#CCN1CCCC1
3.69

So what's the measured log10 of IC50 for this one? CC(=O)O[C@@H]1CC(=O)N(CC#CCN2CCCCC2)C1
3.91

So what's the measured log10 of IC50 for this one? CC(=O)O[C@@H]1CCN(CC#CCN2CCCCC2)C1=O
3.65

So what's the measured log10 of IC50 for this one? CC(=O)O[C@H]1CC(=O)N(CC#CCN(C)C)C1
4.62

So what's the measured log10 of IC50 for this one? CN(C)CC#CCN1CC[C@@H](O)C1=O
2.76

So what's the measured log10 of IC50 for this one? COC1CCN(CC#CCN(C)C(C)=O)C1 (racemic) [(Racemic)-N-[4-(3-Methoxy-1-pyrrolidinyl)-2-butynyl]-N-methyl acetamide]
3.14

So what's the measured log10 of IC50 for this one? O=C1C[C@@H](O)CN1CC#CCN1CCCC1
1.72

So what's the measured log10 of IC50 for this one? O=C1CCCN1CC#CCN1CCCCC1 [reference compound]
1.89

So what's the measured log10 of IC50 for this one? CC(=O)S[C@@H]1CCN(CC#CCN2CCCCC2)C1=O [(R)-S-[2-Oxo-1-[4-(1-piperidinyl)-2-butynyl]-3-pyrrolidinyl]]
1.48

So what's the measured log10 of IC50 for this one? CC(=O)S[C@H]1CCN(CC#CCN2CCCC2)C1=O
1.85

So what's the measured log10 of IC50 for this one? O=C1CCCN1CC#CCN1CCC(O)C1 (racemic) [(Racemic)-1-[4-(3-Hydroxy-1-pyrrolidinyl)-2-butynyl]-2-pyrrolidinone]
2.63

* * *

# test target: muscarinic cholinergic receptor
# assay summary: [3H] Quinuclidinyl Benzilate (3H-QNB) Binding Assay
# Design: species or system rat
# assay conditions: rat cerebral cortex, 0.25 nM 3H-QNB, 25° C., 120 minutes, pH 7.4
quantity: IC50 (µM)
Please state the figure in µM; there is no need to write the unit.

So what's the measured IC50 for this one? CNC(=O)O[C@H]1CCN(CC#CCN2CCCCC2)C1=O
744

So what's the measured IC50 for this one? O=C(O[C@@H]1CCN(CC#CCN2CCCCC2)C1=O)c1ccc([N+](=O)[O-])cc1
43

So what's the measured IC50 for this one? O=C(O[C@@H]1CCN(CC#CCN2CCCC2)C1=O)c1ccc([N+](=O)[O-])cc1
59

So what's the measured IC50 for this one? CN(C)CC#CCN1CC[C@@H](OC(=O)c2ccc([N+](=O)[O-])cc2)C1=O
113

So what's the measured IC50 for this one? O=C1[C@H](SS[C@@H]2CCN(CC#CCN3CCCCC3)C2=O)CCN1CC#CCN1CCCCC1
9

* * *

# test target: muscarinic cholinergic receptor
# assay summary: [3H]-Cis-methyldioxolane (3H-CD) Binding Assay (High Affinity)
# assay conditions: rat cerebral cortex, 1.0 nM 3H-CD, 25° C., 120 minutes, pH 7.4
Counter-ions that a name gives are not always drawn.
Threshold 3000 nM: IC50 strictly smaller gives condition met, otherwise condition not met.

Below 3000 nM on IC50? Entry CO[C@H]1CCN(CC#CCN2CCCC2)C1=O
condition met

Below 3000 nM on IC50? Entry O=C1[C@H](O)CCN1CC#CCN1CCCCC1
condition not met

Below 3000 nM on IC50? Entry CN(C)CC#CCN1CC[C@H](O[Si](C)(C)C(C)(C)C)C1=O
condition not met

Below 3000 nM on IC50? Entry CC(=O)O[C@H]1CC(=O)N(CC#CCN2CCCCC2)C1
condition not met

Below 3000 nM on IC50? Entry O=C1[C@@H](S)CCN1CC#CCN1CCCCC1 [monohydrochloride]
condition met

Below 3000 nM on IC50? Entry O=C1[C@@H](S)CCN1CC#CCN1CCCC1 [monohydrochloride]
condition met

Below 3000 nM on IC50? Entry O=C1[C@H](SS[C@@H]2CCN(CC#CCN3CCCCC3)C2=O)CCN1CC#CCN1CCCCC1
condition met

Below 3000 nM on IC50? Entry CC(=O)O[C@H]1CC(=O)N(CC#CCN2CCCC2)C1
condition not met

Below 3000 nM on IC50? Entry CC(=O)S[C@H]1CCN(CC#CCN2CCCCC2)C1=O
condition met

Below 3000 nM on IC50? Entry CC(C)(C)[Si](C)(C)O[C@H]1CC(=O)N(CC#CCN2CCCC2)C1
condition not met

Below 3000 nM on IC50? Entry COC1CCN(CC#CCN2CCCC2=O)C1 (racemic) [(Racemic)-1-[4-(3-Methoxy-1-pyrrolidinyl)-2-butytnyl]-2-pyrrolidinone]
condition met

Below 3000 nM on IC50? Entry O=C1C[C@H](O)CN1CC#CCN1CCCCC1
condition not met

Data origin: patent US4937235A
